experiment: Thermodynamic solubility at room temperature; type: physicochemical; settings: 25 °C, organic solvent or mixture, thermodynamic from solid, solvent Acetonitrile
measuredQuantity: solubility

Problem: Look at this compound and give its reported solubility. CNC[C@@H](O)COc1ccc(Cl)c(-c2nc(-c3c(C)noc3C)c(C)c(N3CC4(CCN(C(=O)OC)CC4)C3)n2)c1 [Form A]
Solution: > 42 mg/mL

----------
assay: Thermodynamic solubility at room temperature; format: physicochemical; conditions: 25 °C, organic solvent or mixture, thermodynamic from solid, solvent Acetone
measuredQuantity: solubility

Problem: Look at this compound and give its reported solubility. CNC[C@@H](O)COc1ccc(Cl)c(-c2nc(-c3c(C)noc3C)c(C)c(N3CC4(CCN(C(=O)OC)CC4)C3)n2)c1 [Form A]
Solution: > 48 mg/mL

Data origin: patent US20170298073A1
